# TEST_DESCRIPTION: Solubility experiments (approximate solubility by solvent aliquot addition)
# Assay type: physicochemical
# STUDY_CONDITIONS: organic solvent or mixture, thermodynamic from solid; Solvent: EtOAc/Cyclohexane (1:2); ca. 50° C.; read-out: Solubility (mg/mL) (ca. 50° C.)
MEASUREMENT_TYPE: solubility

Fill in the blank: the reported solubility of O=C(O)CNC(=O)c1ncc(-c2cccc(Cl)c2)cc1O [Form A of Compound (I)] is ____.
< 10 mg/mL

====

# TEST_DESCRIPTION: Solubility experiments (approximate solubility by solvent aliquot addition)
# Format: physicochemical
# STUDY_CONDITIONS: organic solvent or mixture, thermodynamic from solid; Solvent: Nitromethane; ca. 50° C.; read-out: Solubility (mg/mL) (ca. 50° C.)
MEASUREMENT_TYPE: solubility

Fill in the blank: the reported solubility of O=C(O)CNC(=O)c1ncc(-c2cccc(Cl)c2)cc1O [Form A of Compound (I)] is ____.
< 10 mg/mL

====

# TEST_DESCRIPTION: Solubility experiments (approximate solubility by solvent aliquot addition)
# Assay type: physicochemical
# STUDY_CONDITIONS: organic solvent or mixture, thermodynamic from solid; Solvent: Methyl acetate (MeOAc); RT (ca. 22° C.); read-out: Solubility (mg/mL) RT (ca. 22° C.)
MEASUREMENT_TYPE: solubility

Fill in the blank: the reported solubility of O=C(O)CNC(=O)c1ncc(-c2cccc(Cl)c2)cc1O [Form A of Compound (I)] is ____.
< 68 mg/mL

====

# TEST_DESCRIPTION: Solubility experiments (approximate solubility by solvent aliquot addition)
# Format: physicochemical
# STUDY_CONDITIONS: organic solvent or mixture, thermodynamic from solid; Solvent: Dimethylformamide (DMF); RT (ca. 22° C.); read-out: Solubility (mg/mL) RT (ca. 22° C.)
MEASUREMENT_TYPE: solubility

Fill in the blank: the reported solubility of O=C(O)CNC(=O)c1ncc(-c2cccc(Cl)c2)cc1O [Form A of Compound (I)] is ____.
> 200 mg/mL

====

# TEST_DESCRIPTION: Solubility experiments (approximate solubility by solvent aliquot addition)
# Type: physicochemical
# STUDY_CONDITIONS: organic solvent or mixture, thermodynamic from solid; Solvent: Dichloromethane (DCM); RT (ca. 22° C.); read-out: Solubility (mg/mL) RT (ca. 22° C.)
MEASUREMENT_TYPE: solubility

Fill in the blank: the reported solubility of O=C(O)CNC(=O)c1ncc(-c2cccc(Cl)c2)cc1O [Form A of Compound (I)] is ____.
< 10 mg/mL

====

# TEST_DESCRIPTION: Solubility experiments (approximate solubility by solvent aliquot addition)
# Format: physicochemical
# STUDY_CONDITIONS: organic solvent or mixture, thermodynamic from solid; Solvent: EtOAc/Toluene (1:2); RT (ca. 22° C.); read-out: Solubility (mg/mL) RT (ca. 22° C.)
MEASUREMENT_TYPE: solubility

Fill in the blank: the reported solubility of O=C(O)CNC(=O)c1ncc(-c2cccc(Cl)c2)cc1O [Form A of Compound (I)] is ____.
< 14 mg/mL

====

# TEST_DESCRIPTION: Solubility experiments (approximate solubility by solvent aliquot addition)
# Type: physicochemical
# STUDY_CONDITIONS: thermodynamic from solid; Solvent: Water; RT (ca. 22° C.); read-out: Solubility (mg/mL) RT (ca. 22° C.)
MEASUREMENT_TYPE: solubility

Fill in the blank: the reported solubility of O=C(O)CNC(=O)c1ncc(-c2cccc(Cl)c2)cc1O [Form A of Compound (I)] is ____.
< 10 mg/mL

These measurements were taken from patent US12419877B2.
